# merged literature set: pIC50 with Substance-P receptor (Homo sapiens, UniProt P25103)
# Sequence (P25103 whole entry): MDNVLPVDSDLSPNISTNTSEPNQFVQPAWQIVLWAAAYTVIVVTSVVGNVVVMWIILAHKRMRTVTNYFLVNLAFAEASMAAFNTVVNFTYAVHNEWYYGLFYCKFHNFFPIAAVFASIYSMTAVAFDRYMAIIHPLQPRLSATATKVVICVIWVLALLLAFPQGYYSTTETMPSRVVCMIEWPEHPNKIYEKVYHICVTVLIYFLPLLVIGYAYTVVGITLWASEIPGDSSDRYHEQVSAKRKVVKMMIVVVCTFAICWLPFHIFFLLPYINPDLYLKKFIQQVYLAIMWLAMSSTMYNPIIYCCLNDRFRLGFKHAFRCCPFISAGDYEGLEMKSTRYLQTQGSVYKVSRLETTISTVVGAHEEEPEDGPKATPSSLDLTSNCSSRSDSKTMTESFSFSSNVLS
Answers are plain numbers, as −log10 of the molar value.

Solved cases (5 shown):
C[C@@H](O[C@@H]1CN(C2=CC(=O)CC(C)(C)C2)C[C@H]1c1ccccc1)c1cc(C(F)(F)F)cc(C(F)(F)F)c1	9.89
CN1CCN(C2CCC(COCc3cc(C(F)(F)F)cc(C(F)(F)F)c3)(c3ccccc3)CC2)CC1 (mixture of isomers)	6.92
COc1ccc(C(CNC(=O)Cc2cc(C(F)(F)F)cc(C(F)(F)F)c2)N2CCC(N3CCCCC3)CC2)c(OC)c1OC (stereo unspecified)	6.68
C[C@@H](O[C@@H]1CN(C2=CC(=O)C(O)C2)C[C@H]1c1ccc(F)cc1)c1cc(C(F)(F)F)cc(C(F)(F)F)c1 (stereo in doubt)	9.52
CC(C)Oc1cccc(CC(=O)NCC(c2ccc(Cl)c(Cl)c2)N2CCC(N3CCCCC3)CC2)c1 (stereo unspecified)	8.30

Report pIC50 for each item below.
1. COc1ccc(-n2nnnc2C(F)(F)F)cc1CN[C@H]1CCN(C(=O)C2CCN(C(C)=O)CC2)C[C@H]1c1ccccc1.Cl (racemic)
2. O=C(N[C@@H](Cc1c[nH]c2ccccc12)C(=O)OCc1ccc(Cl)cc1)c1ccccc1
3. COc1ccccc1C(CNC(=O)Cc1cc(C)cc(C)c1)N1CCC(N2CCCCC2)CC1 (stereo unspecified)
4. N[C@@H]1CC[C@H](OCc2cc(C(F)(F)F)cc(C(F)(F)F)c2)[C@H]1c1ccccc1 (racemic)
5. O=C(N[C@@H](Cc1c[nH]c2ccccc12)C(=O)OCc1ccccc1C(F)(F)F)c1ccccc1
6. CS(=O)(=O)N1CC2(CCN(CCCC3(c4ccc(Cl)c(Cl)c4)CCC(=O)N(Cc4ccccc4)C3)CC2)c2ccccc21 (stereo unspecified)
7. CC(=O)N[C@@H](Cc1cccc2ccccc12)C(=O)OCc1cc(C)cc(C)c1

[10.00, 6.61, 7.21, 8.24, 6.74, 6.12, 6.82]

----------
# merged literature set: pIC50 with Substance-P receptor (Homo sapiens, UniProt P25103)
One number for each entry, as −log10 of the molar value.

Solved cases (4 shown):
O=C(Cc1cc(C(F)(F)F)cc(C(F)(F)F)c1)NCC(c1cccc(C(F)(F)F)c1F)N1CCC(N2CCCCC2)CC1 (stereo not given)	8.77
O=C1CC[C@@H](CN[C@@H]2CC[C@H](OCc3cc(C(F)(F)F)cc(C(F)(F)F)c3)[C@H]2c2ccccc2)N1	8.82
CN(Cc1nnc[nH]1)[C@@H]1CC[C@H](OCc2cc(C(F)(F)F)cc(C(F)(F)F)c2)[C@H]1c1ccccc1 (racemic)	8.96
COC(=O)N[C@@H]1CC[C@H](OCc2cc(C(F)(F)F)cc(C(F)(F)F)c2)[C@H]1c1ccccc1 (racemic)	9.05

Lab note: next compound to report on.
Retrieve pIC50 measured for COc1ccc(OC(F)(F)F)cc1CN[C@H]1CCN(S(C)(=O)=O)C[C@H]1c1ccccc1 (racemic) and print it.
8.92

----------
# merged literature set: IC50 with Substance-P receptor (Homo sapiens, UniProt P25103)
Give bare numbers, in nM.

Solved cases (3 shown):
O=C1CCC(CCCN2CCC3(CC2)CN(c2ccccc2)NC3=O)(c2ccc(Cl)c(Cl)c2)CN1Cc1ccccc1 (centres undefined)	892
COc1ccccc1CC(=N)N1C[C@@H]2C(=O)CCC(c3ccccc3)(c3ccccc3)[C@@H]2C1	49
CS(=O)(=O)N1CC2(CCN(CCCC3(c4ccc(Cl)c(Cl)c4)CCCN(C(=O)c4ccccc4)C3)CC2)c2ccccc21 (centres undefined)	497

Lab note: next molecule to report on.
Given CN(C)C1CCC(COCc2cc(C(F)(F)F)cc(C(F)(F)F)c2)(c2ccccc2)C1 (mixture of isomers) , report its IC50 on Substance-P receptor (Homo sapiens, UniProt P25103).
8
